Where do the numbers come from? From PubChem BioAssay AID686979.

# MEASUREMENT_NOTES: qHTS for Inhibitors of human tyrosyl-DNA phosphodiesterase 1 (TDP1): qHTS in cells in presence of CPT; also: nearly all actives have a fitted effect of over 55% in size
# CONDITION_DETAILS: chicken DT40 Tdp1-/-;hTDP1 cells + 20 nM CPT, ATP luminescence, 48 h; series mostly up to 46.2 µM
The whole screen tested about 420,000 compounds, of which about 50,000 (12%) were called active. Inconclusive results (about 26%) are left out. Calls follow the shape of the dose curve; as a rule, active = well fitted inhibition curve with a large enough effect; inconclusive = small, poorly fitted or top-dose-only effect; inactive = flat fitted curve, though single readings scatter. This excerpt belongs to a sample that is enriched for actives.
API: response.call in active, inactive

QUERY: Tell me the assay call for CC(C)=C(NC(=O)c1ccco1)C(=O)NCCc1nc2ccccc2[nH]1 please.
RESULT: inactive

QUERY: Tell me the assay call for Cc1cccc(NC(=O)N2CCCCCC2)c1C please.
RESULT: inactive

----------
# MEASUREMENT_NOTES: qHTS for Inhibitors of human tyrosyl-DNA phosphodiesterase 1 (TDP1): qHTS in cells in presence of CPT; also: nearly all actives have a fitted effect of over 55% in size
# CONDITION_DETAILS: chicken DT40 Tdp1-/-;hTDP1 cells + 20 nM CPT, ATP luminescence, 48 h; series mostly up to 46.2 µM
The whole screen tested about 420,000 compounds, of which about 50,000 (12%) were called active. About 26% were inconclusive and are not listed. The call rests on the fitted dose curve; in most records, active means well fitted inhibition curve with a large enough effect; inconclusive means small, poorly fitted or top-dose-only effect; inactive means flat fitted curve, though single readings scatter. Many of the other results were omitted from the sample, so actives are more common in it than they were.
API: response.call in active, inactive

These solved cases illustrate the format of a correct answer.
| MOLECULE | CLASS_LABEL |
| --- | --- |
| CSCCC(NC(=O)c1ccccc1)C(=O)N1CCCCCCC1 (stereo not given) | inactive |
| COc1cc(Cl)c(NC(=O)C(NS(=O)(=O)c2cccs2)C(C)C)c(OC)c1 (stereo not given) | inactive |
| CN1OC[C@@H]2CN(C(=O)c3cccc4ccccc34)[C@H](c3ccc(N4CCCCC4)cc3)C[C@@H]21 | inactive |
| CC1CCCCC1NC(=O)Cn1cnc2c1c(=O)n(C)c(=O)n2C (stereo not given) | inactive |
| Cc1ccccc1NC(=O)CSc1ccc2nnc(-c3ccccn3)n2n1 | inactive |

Now let's try a different one.
QUERY: Tell me the assay call for Clc1ccc(Cl)c(Oc2ccc(Oc3nc(Cl)ccc3Cl)cc2)n1 please.
RESULT: inactive

----------
# MEASUREMENT_NOTES: qHTS for Inhibitors of human tyrosyl-DNA phosphodiesterase 1 (TDP1): qHTS in cells in presence of CPT; also: nearly all actives have a fitted effect of over 55% in size
# CONDITION_DETAILS: chicken DT40 Tdp1-/-;hTDP1 cells + 20 nM CPT, ATP luminescence, 48 h; series mostly up to 46.2 µM
Among all 420,000 compounds or so, about 50,000 (12%) were called active. About 26% were inconclusive and are not listed. The call rests on the fitted dose curve; in most records, active means well fitted inhibition curve with a large enough effect; inconclusive means small, poorly fitted or top-dose-only effect; inactive means flat fitted curve, though single readings scatter. For the sample, actives were picked, then their nearest neighbours and some compounds at random.
API: response.call in yes (1) for active, no (0) for inactive

These solved cases illustrate the format of a correct answer.
| COMPOUND | CLASS_LABEL |
| --- | --- |
| C=CCn1c(SCC(=O)NC(=O)Cc2ccccc2)nc2ccccc2c1=O | no (0) |
| Cc1nnc(N/N=C/c2ccccn2)[nH]c1=O | yes (1) |
| COc1ccc(-n2c(O)c(C=NCC(c3ccco3)N3CCCC3)c3ccccc3c2=O)cc1OC (stereo not given) | no (0) |
| CCOc1ccc(-n2c(O)c(/C=N/Nc3nc(C)cc(C)n3)c3ccccc3c2=O)cc1 | yes (1) |

Now let's try a different one.
QUERY: Tell me the assay call for CCOc1ccc(N/C(N)=N/c2nc(C)c(C)c(=O)[nH]2)cc1 please.
RESULT: no (0)
